# System: MOLT-4 leukemia
# test.protocol: NCI-60 one-dose screen, 48 h (100 = growth as untreated, 0 = no growth, -100 = all killed)
# condition.label: 10 µM unless noted
About 83,000 compounds went through this panel and 20% of them were active in at least one assay; those are over-represented in the sample as a whole.
Property: growth; scope: individual compounds
readout.name: growth (%)

{"compound": "COc1cc(C2C(C(=O)OCc3ccccc3)=C(C)Nc3nc4ccccc4n32)cc(OC)c1OC (centres undefined)", "readout.name": "growth", "experimental.value": 33.2}
{"compound": "O=C1Nc2ccccc2/C1=C/C(=O)c1cc2ccccc2oc1=O", "readout.name": "growth", "experimental.value": 41}
{"compound": "Cc1cc(=O)oc2cc(OCC(O)CNN3C(=O)c4cccc5c(N6CCN(C)CC6)ccc(c45)C3=O)ccc12 (centres undefined)", "readout.name": "growth", "experimental.value": 90.4}
{"compound": "Cc1ccc2c(c1)nc(-c1ccccc1)n2CC(=O)N=Nc1c(O)[nH]c2ccc(Cl)cc12", "readout.name": "growth", "experimental.value": -20.3}
{"compound": "Cc1ccc(C2CC(c3ccc(NC(=S)Nc4ccccc4)cc3)=NN2c2ccc(S(N)(=O)=O)cc2)cc1 (centres undefined)", "readout.name": "growth", "experimental.value": 25.8}
{"compound": "O=C(c1ccc(Cl)cc1)C1[C@H](c2ccccc2Cl)[C@@H](c2ccccc2)NC12C(=O)Nc1ccc(Br)cc12 (some centres undefined)", "readout.name": "growth", "experimental.value": -24.5}
{"compound": "CC(=O)C[n+]1cccc2c3ccccc3ccc21", "readout.name": "growth", "experimental.value": 53.9}
{"compound": "COc1ccc(-c2nnc3c(/C=C/c4ccc(Br)cc4)nc4ccccc4n23)cc1", "readout.name": "growth", "experimental.value": 1.9}
{"compound": "NS(=O)(=O)c1ccc(Nc2nc(SCC(=O)c3ccc(F)cc3)nc3ccccc23)cc1", "readout.name": "growth", "experimental.value": 16.8}

Data provenance: PubChem BioAssay (NCI)
